Test details: activity coefficient (dimensionless); of the first substance listed, at infinite dilution; xn = mol fraction of the nth substance listed
Condition context: 338.15 K; 101.33 kPa; Liquid; Chromatography; x1 = 0
Mark yes only for activity coefficient values smaller than 0.7; exact matches and larger values are no.

Molecule | Group
CCC(=O)CC [pentan-3-one] + CCCCCCCCCCCC[N+](C)(C)CCOc1ccccc1.O=S(=O)([N-]S(=O)(=O)C(F)(F)F)C(F)(F)F | yes
CC1CCCCC1 [methylcyclohexane] + CCCCCCCCCCCC[N+](C)(C)CCOc1ccccc1.N#C[N-]C#N | no
c1ccsc1 [thiophene] + CCCCCCCCCCCC[N+](C)(C)CCOc1ccccc1.N#C[N-]C#N | yes
CCOC(C)(C)C [2-ethoxy-2-methylpropane] + CCCCCCCCCCCC[N+](C)(C)CCOc1ccccc1.O=S(=O)([N-]S(=O)(=O)C(F)(F)F)C(F)(F)F | no
CC(C)(C)O [2-methylpropan-2-ol] + CCCCCCCCCCCC[N+](C)(C)CCOc1ccccc1.N#C[N-]C#N | yes
CCO [ethanol] + CCCCCCCCCCCC[N+](C)(C)CCOc1ccccc1.O=S(=O)([N-]S(=O)(=O)C(F)(F)F)C(F)(F)F | no
C=C(C)c1ccccc1 [(1-methylethenyl)benzene] + CCCCCCCCCCCC[N+](C)(C)CCOc1ccccc1.N#C[N-]C#N | no
CCC(C)O (centres undefined) [butan-2-ol] + CCCCCCCCCCCC[N+](C)(C)CCOc1ccccc1.N#C[N-]C#N | yes
CC(C)OC(C)C [diisopropyl ether] + CCCCCCCCCCCC[N+](C)(C)CCOc1ccccc1.N#C[N-]C#N | no
CCCC=O [butanal] + CCCCCCCCCCCC[N+](C)(C)CCOc1ccccc1.N#C[N-]C#N | no
CCOC(C)=O [ethyl acetate] + CCCCCCCCCCCC[N+](C)(C)CCOc1ccccc1.O=S(=O)([N-]S(=O)(=O)C(F)(F)F)C(F)(F)F | yes
Cc1ccccc1C [1,2-dimethylbenzene] + CCCCCCCCCCCC[N+](C)(C)CCOc1ccccc1.O=S(=O)([N-]S(=O)(=O)C(F)(F)F)C(F)(F)F | no
CCCCCCCC [octane] + CCCCCCCCCCCC[N+](C)(C)CCOc1ccccc1.N#C[N-]C#N | no
CC(C)=O [acetone] + CCCCCCCCCCCC[N+](C)(C)CCOc1ccccc1.N#C[N-]C#N | no

====

Test details: activity coefficient (dimensionless); of the first substance listed, at infinite dilution; xn = mol fraction of the nth substance listed
Condition context: 338.15 K; 101.33 kPa; Liquid; Chromatography; x1 = 0
activity coefficient vs 1: at or above is label 1, below is label 0.

Compound | Group
CCCCCC [hexane] + CCCCCCCCCCCC[N+](C)(C)CCOc1ccccc1.N#C[N-]C#N | label 1
C=COC(C)=O [vinyl acetate] + CCCCCCCCCCCC[N+](C)(C)CCOc1ccccc1.O=S(=O)([N-]S(=O)(=O)C(F)(F)F)C(F)(F)F | label 0
CCCc1ccccc1 [propylbenzene] + CCCCCCCCCCCC[N+](C)(C)CCOc1ccccc1.O=S(=O)([N-]S(=O)(=O)C(F)(F)F)C(F)(F)F | label 1
CCCO [propan-1-ol] + CCCCCCCCCCCC[N+](C)(C)CCOc1ccccc1.O=S(=O)([N-]S(=O)(=O)C(F)(F)F)C(F)(F)F | label 1
C1COCCO1 [1,4-dioxane] + CCCCCCCCCCCC[N+](C)(C)CCOc1ccccc1.N#C[N-]C#N | label 0
C=CCCCC [hex-1-ene] + CCCCCCCCCCCC[N+](C)(C)CCOc1ccccc1.N#C[N-]C#N | label 1
CC(C)(C)O [2-methylpropan-2-ol] + CCCCCCCCCCCC[N+](C)(C)CCOc1ccccc1.O=S(=O)([N-]S(=O)(=O)C(F)(F)F)C(F)(F)F | label 1

====

Test details: activity coefficient (dimensionless); of the first substance listed, at infinite dilution; xn = mol fraction of the nth substance listed
Condition context: 368.15 K; 101.33 kPa; Liquid; Chromatography; x1 = 0
activity coefficient vs 1: at or above is Yes, below is No.

Compound | Group
CC(C)(C)O [2-methylpropan-2-ol] + CCCCCCCCCCCC[N+](C)(C)CCOc1ccccc1.O=S(=O)([N-]S(=O)(=O)C(F)(F)F)C(F)(F)F | No
CCCc1ccccc1 [propylbenzene] + CCCCCCCCCCCC[N+](C)(C)CCOc1ccccc1.N#C[N-]C#N | Yes
COC(C)=O [methyl ethanoate] + CCCCCCCCCCCC[N+](C)(C)CCOc1ccccc1.O=S(=O)([N-]S(=O)(=O)C(F)(F)F)C(F)(F)F | No
CCc1ccccc1 [ethylbenzene] + CCCCCCCCCCCC[N+](C)(C)CCOc1ccccc1.O=S(=O)([N-]S(=O)(=O)C(F)(F)F)C(F)(F)F | Yes
C#CCCC [1-pentyne] + CCCCCCCCCCCC[N+](C)(C)CCOc1ccccc1.O=S(=O)([N-]S(=O)(=O)C(F)(F)F)C(F)(F)F | Yes
CCC(C)(C)OC [2-methoxy-2-methylbutane] + CCCCCCCCCCCC[N+](C)(C)CCOc1ccccc1.O=S(=O)([N-]S(=O)(=O)C(F)(F)F)C(F)(F)F | Yes
CCC(C)(C)OC [2-methoxy-2-methylbutane] + CCCCCCCCCCCC[N+](C)(C)CCOc1ccccc1.N#C[N-]C#N | Yes
CC(C)(C)O [2-methylpropan-2-ol] + CCCCCCCCCCCC[N+](C)(C)CCOc1ccccc1.N#C[N-]C#N | No
CCCCCCC [heptane] + CCCCCCCCCCCC[N+](C)(C)CCOc1ccccc1.O=S(=O)([N-]S(=O)(=O)C(F)(F)F)C(F)(F)F | Yes
C=CCCCCC [1-heptene] + CCCCCCCCCCCC[N+](C)(C)CCOc1ccccc1.O=S(=O)([N-]S(=O)(=O)C(F)(F)F)C(F)(F)F | Yes
COC(C)(C)C [2-methoxy-2-methylpropane] + CCCCCCCCCCCC[N+](C)(C)CCOc1ccccc1.N#C[N-]C#N | Yes
C=COC(C)=O [vinyl acetate] + CCCCCCCCCCCC[N+](C)(C)CCOc1ccccc1.N#C[N-]C#N | Yes
O [water] + CCCCCCCCCCCC[N+](C)(C)CCOc1ccccc1.N#C[N-]C#N | No
CCCCCC [hexane] + CCCCCCCCCCCC[N+](C)(C)CCOc1ccccc1.O=S(=O)([N-]S(=O)(=O)C(F)(F)F)C(F)(F)F | Yes

====

Test details: activity coefficient (dimensionless); of the first substance listed, at infinite dilution; xn = mol fraction of the nth substance listed
Condition context: 348.15 K; 101.33 kPa; Liquid; Chromatography; x1 = 0
Readout kind: activity coefficient

Compound | Readout kind | Result
C=CCCCC [hex-1-ene] + CCCCCCCCCCCC[N+](C)(C)CCOc1ccccc1.O=S(=O)([N-]S(=O)(=O)C(F)(F)F)C(F)(F)F | activity coefficient | 2.32
CCCCO [butan-1-ol] + CCCCCCCCCCCC[N+](C)(C)CCOc1ccccc1.O=S(=O)([N-]S(=O)(=O)C(F)(F)F)C(F)(F)F | activity coefficient | 1.23
Cc1ccccc1C [1,2-dimethylbenzene] + CCCCCCCCCCCC[N+](C)(C)CCOc1ccccc1.O=S(=O)([N-]S(=O)(=O)C(F)(F)F)C(F)(F)F | activity coefficient | 0.922
CCCCCCCCCC [decane] + CCCCCCCCCCCC[N+](C)(C)CCOc1ccccc1.N#C[N-]C#N | activity coefficient | 9.31
c1ccccc1 [benzene] + CCCCCCCCCCCC[N+](C)(C)CCOc1ccccc1.O=S(=O)([N-]S(=O)(=O)C(F)(F)F)C(F)(F)F | activity coefficient | 0.658
CC1CCCCC1 [methylcyclohexane] + CCCCCCCCCCCC[N+](C)(C)CCOc1ccccc1.N#C[N-]C#N | activity coefficient | 3.78
C1CCCCCC1 [cycloheptane] + CCCCCCCCCCCC[N+](C)(C)CCOc1ccccc1.N#C[N-]C#N | activity coefficient | 3.31
C1CCOC1 [tetrahydrofuran] + CCCCCCCCCCCC[N+](C)(C)CCOc1ccccc1.O=S(=O)([N-]S(=O)(=O)C(F)(F)F)C(F)(F)F | activity coefficient | 0.446
CCCO [propan-1-ol] + CCCCCCCCCCCC[N+](C)(C)CCOc1ccccc1.N#C[N-]C#N | activity coefficient | 0.445
CC(C)=O [acetone] + CCCCCCCCCCCC[N+](C)(C)CCOc1ccccc1.N#C[N-]C#N | activity coefficient | 0.767
CCCCO [butan-1-ol] + CCCCCCCCCCCC[N+](C)(C)CCOc1ccccc1.N#C[N-]C#N | activity coefficient | 0.483
CCCC(=O)OC [methyl butanoate] + CCCCCCCCCCCC[N+](C)(C)CCOc1ccccc1.O=S(=O)([N-]S(=O)(=O)C(F)(F)F)C(F)(F)F | activity coefficient | 0.672
CCC(C)(C)C [2,2-dimethylbutane] + CCCCCCCCCCCC[N+](C)(C)CCOc1ccccc1.O=S(=O)([N-]S(=O)(=O)C(F)(F)F)C(F)(F)F | activity coefficient | 3.07
CCCc1ccccc1 [propylbenzene] + CCCCCCCCCCCC[N+](C)(C)CCOc1ccccc1.O=S(=O)([N-]S(=O)(=O)C(F)(F)F)C(F)(F)F | activity coefficient | 1.26
